- study system: α3β4α5 nAChRs (Homo sapiens, UniProt P30926+P32297)
- Sequence (P32297 32-505): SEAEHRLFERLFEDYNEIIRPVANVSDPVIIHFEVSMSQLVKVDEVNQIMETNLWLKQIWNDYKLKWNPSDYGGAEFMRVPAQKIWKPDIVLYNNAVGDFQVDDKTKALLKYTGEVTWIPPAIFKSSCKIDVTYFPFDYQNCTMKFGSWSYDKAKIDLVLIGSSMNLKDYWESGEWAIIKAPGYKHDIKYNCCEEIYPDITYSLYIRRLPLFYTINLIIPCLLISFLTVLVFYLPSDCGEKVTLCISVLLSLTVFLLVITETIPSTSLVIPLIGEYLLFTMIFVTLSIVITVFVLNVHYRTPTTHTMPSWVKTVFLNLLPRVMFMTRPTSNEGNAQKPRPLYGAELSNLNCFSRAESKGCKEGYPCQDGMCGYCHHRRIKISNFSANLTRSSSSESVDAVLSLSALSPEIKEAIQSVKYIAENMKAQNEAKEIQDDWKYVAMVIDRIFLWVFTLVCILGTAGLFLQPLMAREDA
- Sequence (P30926 22-498): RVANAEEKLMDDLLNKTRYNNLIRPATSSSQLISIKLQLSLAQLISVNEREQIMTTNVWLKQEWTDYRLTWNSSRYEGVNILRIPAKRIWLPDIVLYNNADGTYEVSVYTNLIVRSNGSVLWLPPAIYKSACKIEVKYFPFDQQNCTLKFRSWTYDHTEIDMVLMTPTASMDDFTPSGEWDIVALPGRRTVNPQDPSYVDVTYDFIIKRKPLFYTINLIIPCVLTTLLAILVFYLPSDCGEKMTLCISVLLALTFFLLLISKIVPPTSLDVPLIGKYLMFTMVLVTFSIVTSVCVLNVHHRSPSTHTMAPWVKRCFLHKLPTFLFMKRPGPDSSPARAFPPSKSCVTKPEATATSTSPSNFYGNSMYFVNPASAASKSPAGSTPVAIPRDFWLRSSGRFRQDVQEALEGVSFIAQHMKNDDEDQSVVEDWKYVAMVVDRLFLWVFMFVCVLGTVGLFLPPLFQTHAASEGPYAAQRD
- Sequence (P30532 23-468 partner): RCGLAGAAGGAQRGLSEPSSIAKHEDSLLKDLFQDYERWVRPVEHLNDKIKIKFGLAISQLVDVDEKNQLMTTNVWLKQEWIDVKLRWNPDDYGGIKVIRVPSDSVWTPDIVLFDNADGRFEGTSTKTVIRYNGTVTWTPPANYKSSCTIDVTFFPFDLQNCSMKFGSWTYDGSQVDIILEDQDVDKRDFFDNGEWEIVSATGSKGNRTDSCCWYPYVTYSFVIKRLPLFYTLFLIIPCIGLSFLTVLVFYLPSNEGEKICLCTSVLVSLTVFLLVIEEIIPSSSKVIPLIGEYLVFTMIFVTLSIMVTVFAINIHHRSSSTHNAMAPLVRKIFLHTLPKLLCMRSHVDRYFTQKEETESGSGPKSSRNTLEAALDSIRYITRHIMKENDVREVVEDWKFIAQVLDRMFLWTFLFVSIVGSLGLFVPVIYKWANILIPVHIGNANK
measured parameter: Antagonist Effect Hillslope

CN1CCCC1c1cccnc1 (stereo not drawn) [Ref. nicotine (Sigma-Aldrich), nicotine] | 1.59
CN1CCCC1c1cccnc1 (racemic) [Synthetic RS racemic nicotine, RS-Nicotine] | 1.52
CN1CCC[C@@H]1c1cccnc1 [Synthetic R nicotine, R nicotine] | 0.95
CN1CCC[C@H]1c1cccnc1 [Synthetic S nicotine, S nicotine] | 1.11
CN1CCC[C@H]1c1cccnc1 [Alchem S nicotine, S nicotine] | 1.34
CN1CCC[C@H]1c1cccnc1 [Sigma-Aldrich S nicotine, S nicotine] | 1.38
